- Tested on: poly(dA-dT)2
- ASSAY_PROTOCOL: Ethidium displacement assay, apparent binding constant, poly(dA-dT)2
- MEASUREMENT_CONDITIONS: apparent association constant, ± 0.2 × 10^5 M^−1
Returns one of Y or N; Y when Kapp Poly (dA-dT)2 is >= 300000 M⁻¹.

# STRUCTURE_AS_SMILES, ANSWER_LABEL
rows = [
    ("COc1cc(/C=C/C(=O)Nc2ccc(N)c(I)c2)cc(OC)c1OC", "Y"),
]

Exercise: Please check the record COc1cc(/C=C/C(=O)Nc2ccc(N)cc2)cc(OC)c1OC and state if its Kapp Poly (dA-dT)2 is at or above 300000 M⁻¹.
Solution: Y

Exercise: Please check the record COc1cc(C(=O)Nc2cc(N)ccc2F)cc(OC)c1OC and state if its Kapp Poly (dA-dT)2 is at or above 300000 M⁻¹.
Solution: Y

Exercise: Please check the record COc1cc(C(=O)Nc2ccc(N)c(I)c2)cc(OC)c1OC and state if its Kapp Poly (dA-dT)2 is at or above 300000 M⁻¹.
Solution: Y

Exercise: Please check the record COc1cc(/C=C/C(=O)Nc2cnc(N)nc2)cc(OC)c1OC and state if its Kapp Poly (dA-dT)2 is at or above 300000 M⁻¹.
Solution: N

Exercise: Please check the record COc1cc(C(=O)Nc2ccc(N)nc2)cc(OC)c1OC and state if its Kapp Poly (dA-dT)2 is at or above 300000 M⁻¹.
Solution: N

* * *

- TEST_SYSTEM: recombinant human DHFR (Homo sapiens)
- Construct: purchased
- Sequence (P00374 whole entry): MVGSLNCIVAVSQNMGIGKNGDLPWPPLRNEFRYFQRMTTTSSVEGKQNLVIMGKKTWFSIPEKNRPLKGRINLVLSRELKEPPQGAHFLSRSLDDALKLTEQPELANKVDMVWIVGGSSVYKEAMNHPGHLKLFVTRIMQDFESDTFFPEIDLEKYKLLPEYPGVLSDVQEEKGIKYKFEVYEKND
- ASSAY_PROTOCOL: Dihydrofolate reductase (DHFR) inhibition assay
- Type: biochemical
- MEASUREMENT_CONDITIONS: assay kit
pIC50: −log10 of the molar value.
Returns one of y or n; y when pIC50 is >= 5.

# COMPOUND, ANSWER_LABEL
data = [
    ("Cn1cc(NC(=O)c2cc(NC(=O)CN=C(N)N)cn2C)cc1C(=O)NCCC(=N)N [NT, netropsin]", "n"),
    ("COc1cccc(C(=O)Nc2ccc(N)nc2)c1 [Compound 9]", "n"),
    ("COc1cc(OC)cc(C(=O)Nc2cnc(N)nc2)c1 [Compound 10]", "n"),
    ("COc1cc(C(=O)Nc2cc(N)ccc2Cl)cc(OC)c1OC [Compound 5]", "n"),
]

Exercise: Please check the record COc1cc(/C=C/C(=O)Nc2ccc(N)c(I)c2)cc(OC)c1OC [Compound 18] and state if its pIC50 is at or above 5.
Solution: y

Exercise: Please check the record COc1cc(C(=O)Nc2ccc(N)c(I)c2)cc(OC)c1OC [Compound 1] and state if its pIC50 is at or above 5.
Solution: n

Exercise: Please check the record COc1cc(NC(=O)/C=C/c2cc(OC)c(OC)c(OC)c2)ccc1N [Compound 14] and state if its pIC50 is at or above 5.
Solution: y

Exercise: Please check the record COc1cc(/C=C/C(=O)Nc2ccc(F)c(N)c2)cc(OC)c1OC [Compound 17] and state if its pIC50 is at or above 5.
Solution: y

Exercise: Please check the record COc1cccc(C(=O)Nc2cnc(N)nc2)c1 [Compound 11] and state if its pIC50 is at or above 5.
Solution: n

* * *

- Test system: poly(dA-dT)2
- ASSAY_PROTOCOL: Ethidium displacement assay, apparent binding constant, poly(dA-dT)2
- MEASUREMENT_CONDITIONS: apparent association constant, ± 0.2 × 10^5 M^−1
Some compounds, each annotated with its measured Kapp Poly (dA-dT)2.
Number only, in M⁻¹; omit the unit.

# STRUCTURE_AS_SMILES, Kapp Poly (dA-dT)2, M⁻¹
measured = [
    ("COc1cc(/C=C/C(=O)Nc2ccc(N)nc2)cc(OC)c1OC", 310000),
    ("COc1cc(C(=O)Nc2ccc(F)c(N)c2)cc(OC)c1OC", 190000),
    ("COc1cc(C(=O)Nc2ccc(N)c(Cl)c2)cc(OC)c1OC", 210000),
    ("COc1cc(OC)cc(C(=O)Nc2cnc(N)nc2)c1", 110000),
    ("COc1ccc(C(=O)Nc2ccc(N)nc2)cc1OC", 310000),
    ("COc1cc(NC(=O)/C=C/c2cc(OC)c(OC)c(OC)c2)ccc1N", 890000),
]

# Kapp Poly (dA-dT)2 (compound: COc1cccc(C(=O)Nc2cnc(N)nc2)c1 ) is 260000

# Kapp Poly (dA-dT)2 (compound: COc1cccc(C(=O)Nc2ccc(N)nc2)c1 ) is 390000

* * *

- Tested on: calf thymus DNA
- ASSAY_PROTOCOL: Ethidium displacement assay, apparent binding constant, calf thymus DNA
- MEASUREMENT_CONDITIONS: apparent association constant, ± 0.2 × 10^5 M^−1
Some compounds, each annotated with its measured Kapp Calf Thymus DNA.
Number only, in M⁻¹; omit the unit.

# STRUCTURE_AS_SMILES, PARAMETER, UNIT_SYMBOL, TEST_RESULT
data = [
    ("COc1cc(/C=C/C(=O)Nc2cnc(N)nc2)cc(OC)c1OC", "Kapp Calf Thymus DNA", "M⁻¹", 210000),
    ("COc1ccc(C(=O)Nc2ccc(N)nc2)cc1OC", "Kapp Calf Thymus DNA", "M⁻¹", 250000),
]

# context switch: different compound, same Kapp Calf Thymus DNA
# Kapp Calf Thymus DNA (compound: COc1cc(NC(=O)/C=C/c2cc(OC)c(OC)c(OC)c2)ccc1N ) is 490000

* * *

- System: pBR322 plasmid
- ASSAY_PROTOCOL: Ethidium bromide assay, DNA-binding effect on plasmid pBR322
- MEASUREMENT_CONDITIONS: % fluorescence relative to controls
Returns one of Met or Not met; Met when Decrease of Fluorescence is >= 70%.

Consider the following illustrative entries.
# COMPOUND, ANSWER_LABEL
data = [
    ("COc1cc(/C=C/C(=O)Nc2ccc(N)c(I)c2)cc(OC)c1OC [Compound 18]", "Not met"),
    ("COc1cccc(C(=O)Nc2cnc(N)nc2)c1 [Compound 11]", "Not met"),
    ("COc1cc(C(=O)Nc2ccc(N)c(I)c2)cc(OC)c1OC [Compound 1]", "Met"),
]

Exercise: Please check the record COc1cc(OC)cc(C(=O)Nc2ccc(N)nc2)c1 [Compound 7] and state if its Decrease of Fluorescence is at or above 70%.
Solution: Not met

Exercise: Please check the record COc1cc(C(=O)Nc2ccc(N)nc2)cc(OC)c1OC [Compound 6] and state if its Decrease of Fluorescence is at or above 70%.
Solution: Not met

Exercise: Please check the record COc1cc(C(=O)Nc2ccc(N)c(Cl)c2)cc(OC)c1OC [Compound 4] and state if its Decrease of Fluorescence is at or above 70%.
Solution: Met

Exercise: Please check the record COc1cc(/C=C/C(=O)Nc2ccc(Cl)c(N)c2)cc(OC)c1OC [Compound 16] and state if its Decrease of Fluorescence is at or above 70%.
Solution: Not met

Exercise: Please check the record CC[n+]1c(-c2ccccc2)c2cc(N)ccc2c2ccc(N)cc21 [EtBr, Ethidium bromide] and state if its Decrease of Fluorescence is at or above 70%.
Solution: Met

* * *

- System: pBR322 plasmid
- ASSAY_PROTOCOL: Ethidium bromide assay, DNA-binding effect on plasmid pBR322
- MEASUREMENT_CONDITIONS: % fluorescence relative to controls
Some molecules, each annotated with its measured Decrease of Fluorescence.
Number only, in %; omit the unit.

These solved cases illustrate the format of a correct answer.
# MOLECULE, TEST_SYSTEM, PARAMETER, UNIT_SYMBOL, TEST_RESULT
records = [
    ("COc1ccc(C(=O)Nc2ccc(N)nc2)cc1OC [Compound 8]", "pBR322 plasmid", "Decrease of Fluorescence", "%", 56.58),
    ("COc1cc(C(=O)Nc2cc(N)ccc2Cl)cc(OC)c1OC [Compound 5]", "pBR322 plasmid", "Decrease of Fluorescence", "%", 72.56),
    ("COc1cc(Cc2cnc(N)nc2N)cc(OC)c1OC [TMP, reference compound]", "pBR322 plasmid", "Decrease of Fluorescence", "%", 100),
    ("COc1cc(C(=O)Nc2cc(N)ccc2F)cc(OC)c1OC [Compound 3]", "pBR322 plasmid", "Decrease of Fluorescence", "%", 68.85),
]

# Decrease of Fluorescence (molecule: COc1cccc(C(=O)Nc2ccc(N)nc2)c1 [Compound 9] ) is 64.89

* * *

- System: poly(dG-dC)2
- ASSAY_PROTOCOL: Ethidium displacement assay, apparent binding constant, poly(dG-dC)2
- MEASUREMENT_CONDITIONS: apparent association constant, ± 0.2 × 10^5 M^−1
Returns one of satisfied or not satisfied; satisfied when Kapp poly (dG-dC)2 is >= 400000 M⁻¹.

Exercise: Please check the record COc1cc(C(=O)Nc2cc(N)ccc2Cl)cc(OC)c1OC and state if its Kapp poly (dG-dC)2 is at or above 400000 M⁻¹.
Solution: not satisfied

Exercise: Please check the record COc1cc(OC)cc(C(=O)Nc2cnc(N)nc2)c1 and state if its Kapp poly (dG-dC)2 is at or above 400000 M⁻¹.
Solution: satisfied

Exercise: Please check the record COc1cc(/C=C/C(=O)Nc2ccc(N)c(I)c2)cc(OC)c1OC and state if its Kapp poly (dG-dC)2 is at or above 400000 M⁻¹.
Solution: satisfied

Exercise: Please check the record COc1cc(C(=O)Nc2ccc(N)c(Cl)c2)cc(OC)c1OC and state if its Kapp poly (dG-dC)2 is at or above 400000 M⁻¹.
Solution: not satisfied

Exercise: Please check the record COc1cc(OC)cc(C(=O)Nc2ccc(N)nc2)c1 and state if its Kapp poly (dG-dC)2 is at or above 400000 M⁻¹.
Solution: not satisfied
